protocol_summary: Toxicity liver stage against HepG2, at 10uM
Type: cell-based
Set-up: test concentration 10 uM, cell line HepG2-A16-CD81EGFP
experimental_parameters: human, HepG2-A16-CD81EGFP cells; read-out: INHIBITION

| compound | cytotoxicity at 10 µM, % |
| --- | --- |
| CCOc1ccc(Cl)c(C(=O)NC)n1 | -4.63 |
| O=C(NCC(O)C1CC1)Nc1cnn(Cc2ccccc2)c1 (configuration not stated) | 4.85 |
| CC(C)NC1CCc2c(ccc(=O)n2CCN2CCCC2=O)C1 (configuration not stated) | 9.52 |
| CC(C)(C)c1oc(C(N)=O)cc1CN1CCOC(C(F)(F)F)C1 (configuration not stated) | -4.81 |
| Cc1noc(C)c1CN1CCN(Cc2ccncc2)c2ncccc2C1 | 5.51 |
| Fc1ccccc1Cn1c(C2CCNCC2)cc2cccnc21 | 1.25 |
| Cn1c(CN2CC[C@](C)(O)C(C)(C)C2)cc2ccccc21 | -3.6 |
| CO[C@H]1CCN(Cc2cnn(C)c2)[C@@H]2CN(Cc3cccnc3)C[C@H]12 | -4.17 |
| Cc1ccoc1C(=O)N1CCCC(CNS(C)(=O)=O)C1 (configuration not stated) | -23.4 |
| COc1cc(C(C)NCc2c[nH]nc2C)ccc1OCCO (configuration not stated) | -7.47 |
| CCCS(=O)(=O)N1CCN(c2cc(-n3cccc3)nc(C)n2)CC1 | 6.62 |
| COc1nc(N2CCC(CC(N)=O)CC2)ncc1Br | 2.99 |
